# experimental.system: Torsin-1A-interacting protein 2 (Homo sapiens) (UniProt Q8NFQ8)
# Sequence (Q8NFQ8 whole entry, looked up): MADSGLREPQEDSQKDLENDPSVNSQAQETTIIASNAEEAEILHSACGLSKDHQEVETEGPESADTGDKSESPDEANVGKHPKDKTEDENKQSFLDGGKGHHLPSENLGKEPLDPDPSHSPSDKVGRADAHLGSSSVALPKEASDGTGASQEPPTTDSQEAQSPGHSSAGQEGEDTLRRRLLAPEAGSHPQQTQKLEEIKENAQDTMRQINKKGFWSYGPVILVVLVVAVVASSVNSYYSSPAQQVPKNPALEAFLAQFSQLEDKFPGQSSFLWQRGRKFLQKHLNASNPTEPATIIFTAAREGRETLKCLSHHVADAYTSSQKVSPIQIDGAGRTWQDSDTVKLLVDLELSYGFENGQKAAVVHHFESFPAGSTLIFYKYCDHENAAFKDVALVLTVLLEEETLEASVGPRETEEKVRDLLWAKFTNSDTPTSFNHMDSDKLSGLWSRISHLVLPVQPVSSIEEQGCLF
# measurement.protocol: LULL1 binders on small-molecule microarray, primary screen, cell lysate, human LULL1 lysate, 635/667 nm fluorescence (AID 1092);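 note: probe is lysate of COS7 cells overexpressing human LULL1; score merges per-feature 667 nm fluorescence with signal-to-noise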
# measurement.context: hLULL1 lysate binding, 635 nm fluorescence, higher = more signal
Each entry below lists one item and its recorded composite z-score value.
endpoint.label: composite z-score

| molecule | data.value |
| --- | --- |
| C=CC[C@]1(C(=O)NCc2ccccc2)COC(c2ccc(OCCCO)cc2)=N1 | 2.87 |
| O=C1O[C@H](c2ccccc2)[C@H](c2ccccc2)N2[C@H]1[C@@H](C(=O)N1CCN(c3ncccn3)CC1)[C@]1(C(=O)Nc3ccccc31)[C@H]2c1ccc(O)cc1 | 3.06 |
| COc1ccccc1CN1C(=O)c2ccccc2[C@@H](C(=O)NCCCN(C)C)[C@@H]1c1ccc(CO)cc1 | -1.07 |
| O=C1C2C=CC(C(O)c3cccc(O)c3)N(Nc3ccccc3F)C2C(=O)N1c1ccccc1 (centres undefined) | 1.88 |
| CN(C)CCCC[C@@H]1NC(=O)[C@@H]2C[C@H](C(=O)NCCCCCCNC(=O)CS)[C@H](c3cccc(OCCO)c3)N2C1=O | 1.18 |
| O=C1O[C@@H](c2ccccc2)[C@@H](c2ccccc2)N2[C@@H](c3ccc(OCCO)cc3)[C@]3(C(=O)Nc4ccc(C#CCCO)cc43)[C@@H](C(=O)Nc3nc4ccccc4s3)[C@H]12 | 3.06 |
| CN(C)CCCC[C@@H]1NC(=O)[C@@H]2C[C@H](C(=O)NCc3ccc(F)cc3)[C@H](c3ccc(O)cc3)N2C1=O | 2.72 |
| COC(=O)c1c(CC[C@@H](CO)NC(=O)N[C@@H](Cc2ccccc2)Cn2cc(-c3cncn3C)nn2)oc(C(C)=O)c1C(=O)OC | 2.99 |
| CC(C)CNC(=O)[C@@H]1c2ccccc2C(=O)N(Cc2ccccc2)[C@H]1c1ccc(CO)cc1 | 3.22 |
| COCCOC(=O)N1C(=O)[C@@]2(c3cc(C#CC4=CCCCC4)ccc31)[C@H](C(=O)N1CCN(c3ncccn3)CC1)[C@H]1C(=O)O[C@H](c3ccccc3)[C@H](c3ccccc3)N1[C@@H]2c1ccccc1OCCO | 2.75 |
| C=CCOC(=O)[C@H]1[C@@H]2C(=O)O[C@@H](c3ccccc3)[C@@H](c3ccccc3)N2[C@@H](c2ccc(OCCOC(=O)[C@@H]3C[C@@H]4C(=O)N[C@@H](CC(C)C)C(=O)N4[C@@H]3c3ccc(O)cc3)cc2)[C@]12C(=O)Nc1ccc(I)cc12 | 2.44 |
| COC(=O)[C@@]1(Cc2ccc(F)cc2)[C@H]2c3cc(C(=O)N(C)C)n(CCN4CCOCC4)c3C[C@H]2CN1C(=O)c1ccccc1 | 2.5 |
| COCCOC(=O)N1C(=O)[C@@]2(c3ccccc31)[C@H](C(=O)N1CCCCCCC1)[C@H]1C(=O)O[C@H](c3ccccc3)[C@H](c3ccccc3)N1[C@@H]2c1ccc(O)cc1 | 4.37 |
| C#CCN([C@H](/C=C/C1CC1)[C@@H](O)Cc1ccccc1)[C@@H](Cc1ccccc1)C(=O)OC | 0.126 |

---

# experimental.system: Neurogenic locus notch homolog protein 2 (Homo sapiens) (UniProt Q04721)
# Sequence (Q04721 whole entry, looked up): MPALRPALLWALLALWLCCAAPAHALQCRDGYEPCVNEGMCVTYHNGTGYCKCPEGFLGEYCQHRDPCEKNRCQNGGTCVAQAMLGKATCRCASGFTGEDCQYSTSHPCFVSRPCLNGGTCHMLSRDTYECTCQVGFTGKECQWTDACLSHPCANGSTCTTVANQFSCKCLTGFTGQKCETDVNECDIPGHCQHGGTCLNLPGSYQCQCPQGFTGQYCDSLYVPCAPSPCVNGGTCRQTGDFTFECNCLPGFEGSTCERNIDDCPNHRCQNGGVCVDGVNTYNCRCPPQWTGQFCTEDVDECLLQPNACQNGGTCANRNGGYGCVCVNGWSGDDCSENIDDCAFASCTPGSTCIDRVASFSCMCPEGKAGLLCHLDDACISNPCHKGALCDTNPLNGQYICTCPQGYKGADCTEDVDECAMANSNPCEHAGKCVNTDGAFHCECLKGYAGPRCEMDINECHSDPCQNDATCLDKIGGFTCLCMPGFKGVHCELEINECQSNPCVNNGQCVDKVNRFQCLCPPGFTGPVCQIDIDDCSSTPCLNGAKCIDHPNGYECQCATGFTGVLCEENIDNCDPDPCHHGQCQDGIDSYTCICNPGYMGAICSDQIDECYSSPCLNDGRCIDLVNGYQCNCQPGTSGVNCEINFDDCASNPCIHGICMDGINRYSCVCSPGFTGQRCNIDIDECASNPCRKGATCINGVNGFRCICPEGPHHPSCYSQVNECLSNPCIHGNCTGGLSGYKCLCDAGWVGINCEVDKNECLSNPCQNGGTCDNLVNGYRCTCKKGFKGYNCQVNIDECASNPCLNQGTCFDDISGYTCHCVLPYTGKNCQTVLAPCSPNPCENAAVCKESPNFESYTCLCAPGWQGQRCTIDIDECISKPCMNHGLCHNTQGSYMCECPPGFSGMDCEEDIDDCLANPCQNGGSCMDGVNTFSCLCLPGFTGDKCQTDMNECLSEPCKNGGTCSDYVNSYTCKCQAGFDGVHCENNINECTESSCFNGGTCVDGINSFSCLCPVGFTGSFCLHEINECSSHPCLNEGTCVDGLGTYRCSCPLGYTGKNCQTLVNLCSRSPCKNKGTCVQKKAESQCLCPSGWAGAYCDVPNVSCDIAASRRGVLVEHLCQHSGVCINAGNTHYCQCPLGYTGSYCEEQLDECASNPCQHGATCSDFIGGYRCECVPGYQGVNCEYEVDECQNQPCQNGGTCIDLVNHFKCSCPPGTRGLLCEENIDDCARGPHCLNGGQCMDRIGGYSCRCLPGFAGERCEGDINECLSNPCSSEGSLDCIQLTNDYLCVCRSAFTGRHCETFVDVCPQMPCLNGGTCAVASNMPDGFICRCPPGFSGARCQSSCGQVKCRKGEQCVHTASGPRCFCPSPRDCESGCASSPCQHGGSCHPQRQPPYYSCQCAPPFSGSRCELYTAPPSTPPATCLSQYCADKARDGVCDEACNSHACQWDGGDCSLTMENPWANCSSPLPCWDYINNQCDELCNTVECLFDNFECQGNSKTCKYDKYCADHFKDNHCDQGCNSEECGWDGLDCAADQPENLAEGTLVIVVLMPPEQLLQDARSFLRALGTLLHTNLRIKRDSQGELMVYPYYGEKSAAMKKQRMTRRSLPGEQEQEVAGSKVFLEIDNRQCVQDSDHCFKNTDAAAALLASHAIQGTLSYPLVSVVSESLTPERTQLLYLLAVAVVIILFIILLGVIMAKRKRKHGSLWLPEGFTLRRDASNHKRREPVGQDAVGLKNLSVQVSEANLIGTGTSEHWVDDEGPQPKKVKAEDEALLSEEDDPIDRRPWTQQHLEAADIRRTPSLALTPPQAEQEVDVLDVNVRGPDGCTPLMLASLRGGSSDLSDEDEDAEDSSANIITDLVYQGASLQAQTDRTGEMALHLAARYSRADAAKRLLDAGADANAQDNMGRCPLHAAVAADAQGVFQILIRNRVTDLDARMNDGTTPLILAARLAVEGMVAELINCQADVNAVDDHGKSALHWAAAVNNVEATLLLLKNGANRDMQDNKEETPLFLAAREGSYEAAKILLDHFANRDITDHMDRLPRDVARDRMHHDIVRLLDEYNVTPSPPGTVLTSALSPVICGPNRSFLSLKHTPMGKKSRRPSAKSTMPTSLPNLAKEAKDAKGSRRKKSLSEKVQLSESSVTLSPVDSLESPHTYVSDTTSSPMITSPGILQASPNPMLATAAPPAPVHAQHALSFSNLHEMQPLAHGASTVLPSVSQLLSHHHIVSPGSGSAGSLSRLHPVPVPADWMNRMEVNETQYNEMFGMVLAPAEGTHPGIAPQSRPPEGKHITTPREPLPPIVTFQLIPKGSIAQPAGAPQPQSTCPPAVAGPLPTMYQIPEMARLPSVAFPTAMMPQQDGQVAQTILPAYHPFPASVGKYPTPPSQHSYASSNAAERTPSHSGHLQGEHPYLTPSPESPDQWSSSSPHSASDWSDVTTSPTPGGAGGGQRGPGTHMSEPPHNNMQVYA
# measurement.protocol: Notch2 binders on small-molecule microarrays, primary screen, biochemical, small-molecule microarray, 635 nm fluorescence, stem cell growth factors (AID 1073)
# measurement.context: Notch2 binding, higher = more signal
# binning rule on composite z-score: band 1 (below 0.2), band 2 (0.2 to below 1), band 3 (1 or more)

| molecule | experimental.system | class.label |
| --- | --- | --- |
| O=C1OCCC=C[C@H]2OC34C=CCN(c5ccc(Cl)cc5)C(=O)[C@H]3N(CCO)C(=O)[C@@H]4C12 (stereo partly drawn) | Neurogenic locus notch homolog protein 2 (Homo sapiens) (UniProt Q04721) | band 1 |
| CC(C)CNC(=O)[C@@H]1c2ccccc2C(=O)N(Cc2ccccc2)[C@H]1c1ccc(CO)cc1 | Neurogenic locus notch homolog protein 2 (Homo sapiens) (UniProt Q04721) | band 1 |
| CC[C@H](C)C(=O)O[C@H]1CC[C@]2(C)C3=C(CCC2C1(C)C)[C@]1(C)CC[C@H]([C@H](C)CCCC(C)C)[C@@]1(C)CC3 (stereo partly drawn) | Neurogenic locus notch homolog protein 2 (Homo sapiens) (UniProt Q04721) | band 2 |
| CN(C)C(=O)[C@@]1(CCS(=O)(=O)c2ccccc2)N=C(c2ccc(OCCCO)cc2)O[C@H]1c1ccccc1N=[N+]=[N-] | Neurogenic locus notch homolog protein 2 (Homo sapiens) (UniProt Q04721) | band 3 |
| COCCOC(=O)N1C(=O)[C@@]2(c3cc(C#CC4(O)CCCCCC4)ccc31)[C@H](c1ccc(OCCO)cc1)N1[C@H](c3ccccc3)[C@H](c3ccccc3)OC(=O)[C@H]1[C@@H]2C(=O)N1CCCCCCC1 | Neurogenic locus notch homolog protein 2 (Homo sapiens) (UniProt Q04721) | band 3 |
| COC(=O)[C@@]1(Cc2ccc(F)cc2)[C@H]2c3cc(C(=O)N(C)C)n(CCN4CCOCC4)c3C[C@H]2CN1C(=O)c1ccccc1 | Neurogenic locus notch homolog protein 2 (Homo sapiens) (UniProt Q04721) | band 3 |
| COC(=O)C1=CC(CCCO)=CC(c2ccc(CN3CCCC3)cc2)N(Cc2sc3ccccc3c2Cl)C=C1C(=O)OC (stereo not drawn) | Neurogenic locus notch homolog protein 2 (Homo sapiens) (UniProt Q04721) | band 3 |
| COCC1=C([C@H](O)CCc2ccccc2)[C@H](CO)n2c(=O)n(-c3ccccc3)c(=O)n2C1 | Neurogenic locus notch homolog protein 2 (Homo sapiens) (UniProt Q04721) | band 1 |
| COc1ccc(CCNC(=O)[C@@]2(C)c3ccccc3C(=O)N(Cc3cc(C(F)(F)F)cc(C(F)(F)F)c3)[C@H]2c2ccc(CO)cc2)cc1 | Neurogenic locus notch homolog protein 2 (Homo sapiens) (UniProt Q04721) | band 1 |
| CCCCNC(=O)c1ccc(C#C[Si](C)(C)C)c(OC(C)=O)c1 | Neurogenic locus notch homolog protein 2 (Homo sapiens) (UniProt Q04721) | band 2 |
| COCCOC(=O)N1C(=O)[C@@]2(c3cc(C#CCNC(N)=O)ccc31)[C@H](C(=O)NC[C@H](O)c1ccccc1)[C@H]1C(=O)O[C@H](c3ccccc3)[C@H](c3ccccc3)N1[C@@H]2c1ccc(OCCO)cc1 | Neurogenic locus notch homolog protein 2 (Homo sapiens) (UniProt Q04721) | band 2 |
| C=CCOC(=O)[C@H]1[C@@H]2C(=O)O[C@@H](c3ccccc3)[C@@H](c3ccccc3)N2[C@@H](c2ccc(OCCOC(=O)[C@@H]3C[C@@H]4C(=O)N[C@@H](Cc5ccccc5)C(=O)N4[C@@H]3c3ccc(O)cc3)cc2)[C@]12C(=O)Nc1ccccc12 | Neurogenic locus notch homolog protein 2 (Homo sapiens) (UniProt Q04721) | band 2 |
